subjectOfTest: UniProt Q9WTR4
Sequence (Q9WTR4 whole entry): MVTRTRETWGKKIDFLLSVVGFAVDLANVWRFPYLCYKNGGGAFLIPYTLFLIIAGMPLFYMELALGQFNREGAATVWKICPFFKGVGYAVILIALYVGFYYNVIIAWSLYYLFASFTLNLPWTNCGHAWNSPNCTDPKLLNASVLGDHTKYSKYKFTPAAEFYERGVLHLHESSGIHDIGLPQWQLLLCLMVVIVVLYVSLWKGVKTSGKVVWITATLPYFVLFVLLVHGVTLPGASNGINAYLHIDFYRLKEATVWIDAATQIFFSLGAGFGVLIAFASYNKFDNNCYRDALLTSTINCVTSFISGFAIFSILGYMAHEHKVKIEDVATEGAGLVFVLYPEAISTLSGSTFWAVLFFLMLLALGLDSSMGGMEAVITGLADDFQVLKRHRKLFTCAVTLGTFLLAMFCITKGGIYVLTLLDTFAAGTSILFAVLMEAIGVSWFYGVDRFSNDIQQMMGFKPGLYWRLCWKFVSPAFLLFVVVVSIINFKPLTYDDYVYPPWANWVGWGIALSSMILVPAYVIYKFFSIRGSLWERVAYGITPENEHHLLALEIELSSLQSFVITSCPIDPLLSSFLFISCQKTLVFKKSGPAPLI
pKi: −log10 of the molar value.
Binary classification by pKi, with 6 as an inclusive lower bound for true (1); all other cases are false (0).

molecule	labelValue
CN1C2CCC1C(c1cc(C(C)(C)C)no1)C(c1ccc(Cl)cc1)C2 (stereo not given)	false (0)
Cc1ccc(C2CC3CCC(C2C(=O)OC(C)C)N3C)cc1 (stereo not given)	true (1)
Cc1ccc(C2CC3CCC(C2c2cc(-c4ccccc4)no2)N3C)cc1 (stereo not given)	true (1)
CN1C2CCC1C(c1cc(-c3ccc(Cl)cc3)no1)C(c1ccc(Cl)cc1)C2 (stereo not given)	false (0)
Cc1ccc(C2CC3CCC(C2c2cc(C(C)(C)C)no2)N3C)cc1 (stereo not given)	false (0)
CN1C2CCC1C(c1ccno1)C(c1ccc(Cl)cc1)C2 (stereo not given)	true (1)
Cc1ccc(C2CC3CCC(C2c2cc(-c4ccc(F)cc4)no2)N3C)cc1 (stereo not given)	true (1)
CN1C2CCC1C(c1cc(-c3ccc(F)cc3)no1)C(c1ccc(Cl)cc1)C2 (stereo not given)	true (1)
CCc1cc(C2C(c3ccc(C)cc3)CC3CCC2N3C)on1 (stereo not given)	true (1)
CN1C2CCC1C(C(=O)Oc1ccccc1)C(c1ccc(Cl)cc1)C2 (stereo not given)	true (1)
Cc1ccc(C2CC3CCC(C2c2cc(C)no2)N3C)cc1 (stereo not given)	true (1)
CCc1cc(C2C(c3ccc(Cl)cc3)CC3CCC2N3C)on1 (stereo not given)	true (1)
Cc1ccc(C2CC3CCC(C2c2cc(-c4ccc(Cl)cc4)no2)N3C)cc1 (stereo not given)	false (0)
CC(C)c1cc(C2C(c3ccc(Cl)cc3)CC3CCC2N3C)on1 (stereo not given)	true (1)
COc1ccc(-c2cc(C3C(c4ccc(Cl)cc4)CC4CCC3N4C)on2)cc1 (stereo not given)	true (1)
Cc1ccc(C2CC3CCC(C2c2cc(C(C)C)no2)N3C)cc1 (stereo not given)	false (0)
Cc1cc(C2C(c3ccc(Cl)cc3)CC3CCC2N3C)on1 (stereo not given)	true (1)
CN1C2CC[C@@H]1C[C@H](c1ccc(Cl)cc1)C2c1cc(-c2ccccc2)no1 (stereo not given in full)	true (1)
COc1ccc(-c2cc(C3C(c4ccc(C)cc4)CC4CCC3N4C)on2)cc1 (stereo not given)	true (1)

###

Item-by-item account of Change
Tested on: Mus musculus
assayDetails: Percent change locomotor activity in mice at 1 mg/kg i.p. in 3 h.
Type: functional
assaySetup: route intraperitoneal

compound	Change, %
CC(C)c1cc(C2C(c3ccc(Cl)cc3)CC3CCC2N3C)on1 (stereo unspecified)	188
Cc1ccc(C2CC3CCC(C2c2ccno2)N3C)cc1 (stereo unspecified)	48
CCc1cc(C2C(c3ccc(C)cc3)CC3CCC2N3C)on1 (stereo unspecified)	222
CN1C2CCC1C(c1ccno1)C(c1ccc(Cl)cc1)C2 (stereo unspecified)	345
Cc1ccc(C2CC3CCC(C2c2cc(C)no2)N3C)cc1 (stereo unspecified)	392
CCc1cc(C2C(c3ccc(Cl)cc3)CC3CCC2N3C)on1 (stereo unspecified)	1708
CN1C2CC[C@@H]1C[C@H](c1ccc(Cl)cc1)C2c1cc(-c2ccccc2)no1 (stereo partly specified)	45
Cc1ccc(-c2cc(C3C(c4ccc(C)cc4)CC4CCC3N4C)on2)cc1 (stereo unspecified)	76
Cc1ccc(C2CC3CCC(C2c2cc(-c4ccc(Cl)cc4)no2)N3C)cc1 (stereo unspecified)	33
CN1C2CCC1C(c1cc(C(C)(C)C)no1)C(c1ccc(Cl)cc1)C2 (stereo unspecified)	135
COc1ccc(-c2cc(C3C(c4ccc(Cl)cc4)CC4CCC3N4C)on2)cc1 (stereo unspecified)	101
